biological target: human oxytocin receptor (Homo sapiens); construct: host or cells: CHO cells (pcDNA3.1 vector); test: Oxytocin binding in Chinese Hamster Ovary cell membranes expressing human oxytocin receptors; details: 100 nM, CHO cell membranes, [3H]oxytocin, values without parentheses, read-out: OT % inhibition @ 100% nM
Sequence (P30559 whole entry): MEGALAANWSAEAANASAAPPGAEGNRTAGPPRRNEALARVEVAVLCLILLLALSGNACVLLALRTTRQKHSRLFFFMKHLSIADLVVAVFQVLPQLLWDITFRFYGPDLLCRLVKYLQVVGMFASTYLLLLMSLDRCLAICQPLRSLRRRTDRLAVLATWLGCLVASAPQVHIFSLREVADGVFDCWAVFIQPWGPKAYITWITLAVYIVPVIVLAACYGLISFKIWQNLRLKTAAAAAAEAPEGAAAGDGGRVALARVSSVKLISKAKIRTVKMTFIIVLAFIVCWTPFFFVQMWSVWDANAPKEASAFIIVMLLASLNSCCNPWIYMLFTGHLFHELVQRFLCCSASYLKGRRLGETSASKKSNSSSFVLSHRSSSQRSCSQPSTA
Each record gets a class by inhibition at 0.1 µM: low bin (below 40%), mid bin (40% to below 70%), high bin (70% or more)

>  <Compound>
CN(C)CCCN1CCN(C(=O)c2ccc3n2Cc2ccccc2N(C(=O)c2ccc(-c4cccc5ccccc45)cc2Cl)C3)CC1 [Example 256]

>  <Target>
human oxytocin receptor (Homo sapiens)

>  <Assigned Class>
low bin

$$$$
>  <Compound>
COc1cccc(-c2ccc(C(=O)N3Cc4ccc(C(=O)N5CCCN(C)CC5)n4Cc4ccccc43)cc2OC)c1 [Example 70]

>  <Target>
human oxytocin receptor (Homo sapiens)

>  <Assigned Class>
high bin

$$$$
>  <Compound>
COc1ccccc1-c1ccc(C(=O)N2Cc3ccc(C(=O)N(C)C4CCN(C)C4)n3Cc3ccccc32)cc1OC (centres unmarked) [Example 193]

>  <Target>
human oxytocin receptor (Homo sapiens)

>  <Assigned Class>
high bin

$$$$
>  <Compound>
Cc1ccccc1-c1ccc(C(=O)N2Cc3ccc(C(=O)N4CCN(C)CC4)n3Cc3ccccc32)cc1 [Example 52]

>  <Target>
human oxytocin receptor (Homo sapiens)

>  <Assigned Class>
high bin

$$$$
>  <Compound>
COc1ccccc1-c1ccc(C(=O)N2Cc3ccc(C(=O)NCCN4CCCCC4)n3Cc3ccccc32)cc1 [Example 152]

>  <Target>
human oxytocin receptor (Homo sapiens)

>  <Assigned Class>
mid bin

$$$$
>  <Compound>
CN1CCCN(C(=O)c2ccc3n2Cc2ccccc2N(C(=O)c2ccc(-c4cccc5ccccc45)cc2Cl)C3)CC1 [Example 71]

>  <Target>
human oxytocin receptor (Homo sapiens)

>  <Assigned Class>
low bin

$$$$
>  <Compound>
COc1cccc(-c2ccc(C(=O)N3Cc4ccc(C(=O)NCCCN(C)C)n4Cc4ccccc43)cc2C)c1 [Example 74]

>  <Target>
human oxytocin receptor (Homo sapiens)

>  <Assigned Class>
mid bin

$$$$
>  <Compound>
COc1cccc(-c2ccc(C(=O)N3Cc4ccc(C(=O)N5CCCN(C)CC5)n4Cc4ccccc43)cc2C)c1 [Example 64]

>  <Target>
human oxytocin receptor (Homo sapiens)

>  <Assigned Class>
high bin

$$$$
>  <Compound>
COc1cc(C(=O)N2Cc3ccc(C(=O)N4CCN(CCN(C)C)CC4)n3Cc3ccccc32)ccc1-c1cccc2ccccc12 [Example 203]

>  <Target>
human oxytocin receptor (Homo sapiens)

>  <Assigned Class>
mid bin

$$$$
>  <Compound>
COc1cc(C(=O)N2Cc3ccc(C(=O)N4CCN(CCN(C)C)CC4)n3Cc3ccccc32)ccc1-n1c(C)ccc1C [Example 316]

>  <Target>
human oxytocin receptor (Homo sapiens)

>  <Assigned Class>
low bin

$$$$
>  <Compound>
Cc1cc(C(=O)N2Cc3ccc(C(=O)n4ccnc4)n3Cc3ccccc32)ccc1-c1ccccc1C(F)(F)F [Example 294]

>  <Target>
human oxytocin receptor (Homo sapiens)

>  <Assigned Class>
mid bin

$$$$
>  <Compound>
COc1cccc(-c2cc(OC)c(C(=O)N3Cc4ccc(C(=O)NCCC5CCCN5C)n4Cc4ccccc43)cc2Cl)c1 (centres unmarked) [Example 169]

>  <Target>
human oxytocin receptor (Homo sapiens)

>  <Assigned Class>
low bin

$$$$
>  <Compound>
COc1cccc(-c2ccc(C(=O)N3Cc4ccc(C(=O)NCCCn5ccnc5)n4Cc4ccccc43)cc2C)c1 [Example 125]

>  <Target>
human oxytocin receptor (Homo sapiens)

>  <Assigned Class>
low bin

$$$$

Each recorded value in this set is attributed to patent US7109193B2.
